Tested on: MOLT-4
protocol: NCI tumour cell line growth inhibition, 48 h
Calls of active or inactive are those of the source. No stated cut-off is given here; in the data, active = GI50 up to about 1.1 µM and inactive = higher.
Pick one and only one: active, inactive

Field: example entries. Status: answers known.
1. COc1ccc(C(OCC2OC(n3ccc(Oc4c(F)c(F)c(F)c(F)c4F)nc3=O)CC2OP(OCCC#N)N(C(C)C)C(C)C)(c2ccccc2)c2ccc(OC)cc2)cc1 (stereo unspecified) : inactive
2. COc1ccc(/N=C2\C(=N/c3ccc(OC)cc3)N(S(=O)(=O)c3ccccc3)C(=S)N2c2ccccc2)cc1 : inactive
3. COc1cccc(/C=C2\CCC(C)(CN(C)C)C2=O)c1 (stereo unspecified) : inactive
4. NNC(=O)CSc1nc2ccccc2c(=O)n1N : inactive
5. COc1ccc2c3c1OC1C34CCN(C)C(C2)C4=CC(I)C1(OC)OC (stereo unspecified) : inactive

Q: For `CN(C)c1cccc(OC(=O)NCCCl)c1` , which call appears in the assay record?
A: inactive

Q: For CC12CCC(C(=O)OC1=O)C2(C)C (stereo unspecified) , which call appears in the assay record?
A: inactive

Q: For `CCOC(=O)c1cnc2oc3ccc(O)cc3c2c1C` , which call appears in the assay record?
A: inactive

Q: For N#CC12CC(C=O)=C(N)C1(C#N)CC(C=O)=C2N (stereo unspecified) , which call appears in the assay record?
A: inactive

Q: For `NC(=O)NC(=O)c1cccc(NC(=O)CCl)c1` , which call appears in the assay record?
A: active

Q: For `COc1cc(C)c2c(c1)CN1CN2Cc2cc(OC)cc(C)c21` , which call appears in the assay record?
A: inactive
